Examples of binders with documented pKd follow.
# SYSTEM: T1, cynomolgus monkey BCMA (cynomolgus monkey, UniProt A0A2K5UD97 1-53)
# T1 construct: Soluble analyte in SPR; construct not described; also called cyBCMA; Cyno BCMA
# T1 sequence (A0A2K5UD97 entry or part of it): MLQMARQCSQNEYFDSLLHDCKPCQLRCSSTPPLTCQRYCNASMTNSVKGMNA
# TEST DESCRIPTION: SPR, IgG on chip, cyBCMA analyte, 37C
Scale: negative log10 of molar concentration, which is what pKd denotes.

Consider the following illustrative entries.
L3.PY/L1.FF/H2.LT (antibody, V domains shown, IgG) VH: EVQLLESGGGLVQPGGSLRLSCAASGFTFGSYAMTWVRQAPGKGLEWVSAISLTGGNTFYADSVKGRFTISRDNSKNTLYLQMNSLRAEDTAVYYCARVSPIASGMDYWGQGTLVTVSS VL: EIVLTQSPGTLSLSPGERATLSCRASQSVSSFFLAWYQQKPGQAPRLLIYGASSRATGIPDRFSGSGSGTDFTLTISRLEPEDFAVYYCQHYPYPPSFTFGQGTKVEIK; 8.81
L3.PY/L1.FF/H3.YA (antibody, V domains shown, IgG) VH: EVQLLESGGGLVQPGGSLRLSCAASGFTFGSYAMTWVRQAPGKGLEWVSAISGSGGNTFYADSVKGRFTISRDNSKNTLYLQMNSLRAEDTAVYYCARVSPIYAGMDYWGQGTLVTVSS VL: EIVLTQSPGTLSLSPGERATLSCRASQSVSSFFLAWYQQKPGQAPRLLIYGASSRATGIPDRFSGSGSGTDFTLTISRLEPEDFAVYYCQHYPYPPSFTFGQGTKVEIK; 8.77

Then there is this binder:
Specify reported pKd for the binder shown: L3.PY/L3.KY/H3.YA (antibody, V domains shown, IgG) VH: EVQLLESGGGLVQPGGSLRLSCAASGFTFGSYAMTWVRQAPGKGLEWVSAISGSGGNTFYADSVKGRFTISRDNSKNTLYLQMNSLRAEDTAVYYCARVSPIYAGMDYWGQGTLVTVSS VL: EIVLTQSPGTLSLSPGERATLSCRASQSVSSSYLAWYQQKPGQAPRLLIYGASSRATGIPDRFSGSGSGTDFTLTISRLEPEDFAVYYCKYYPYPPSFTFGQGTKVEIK
8.63
